target: human POR (Homo sapiens); construct: full-length wild type in pET22b, expressed in E. coli BL21(DE3); bacterial membranes reconstituted in DLPC/DLPG liposomes without further purification, or used as microsomes; assay: biochemical; parameters: POR proteoliposome reduction of cytochrome c, MTT (absorbance) or resazurin (fluorescence), normalized to DMSO control; conditions: read-out: % of control remaining, Cytochrome C=MTT; Liposomes=Liposomes; electron acceptor as given
Let's look at some compounds and their measured remaining activity at 10 µM.
outcome_measure: remaining activity at 10 µM (%)

- input_smiles: "CN/C(=N\\CCSCc1nc[nH]c1C)NC#N"
  outcome_measure: "remaining activity at 10 µM"
  meas_value: 96.9
- input_smiles: "CO[C@@]12[C@H](COC(N)=O)C3=C(C(=O)C(C)=C(N)C3=O)N1C[C@@H]1N[C@@H]12"
  outcome_measure: "remaining activity at 10 µM"
  meas_value: 110
- input_smiles: "CO[C@H]1/C=C/O[C@@]2(C)Oc3c(C)c(O)c4c(O)c(c(/C=N/N5CCN(C)CC5)c(O)c4c3C2=O)NC(=O)/C(C)=C\\C=C\\[C@H](C)[C@H](O)[C@@H](C)[C@@H](O)[C@@H](C)[C@H](OC(C)=O)[C@@H]1C"
  outcome_measure: "remaining activity at 10 µM"
  meas_value: 95.7

====

Assay: in vitro
Settings: human, nci-h295r cells; Assay=MTT cell viability; DMSO (v/v %)=1; read-out: % viability
Experimental: We tested the efficiency of the three ligands to elicit a physiological response on steroidogenic CYP activities in cells (Fig. 5A, see Supplementary Methods, Supplementary Fig. 14 and Supplementary Table 4 for all data and number of biological replicates). […] Using radiolabeled substrates, we were able to quantify the steroid hormone production of CYP17A1 and CYP21A2 and its remodeling by POR ligands (see Supplementary Methods for details). […] Cell viability was assessed based on MTT reduction. […]

- input_smiles: "CO[C@H]1/C=C/O[C@@]2(C)Oc3c(C)c(O)c4c(O)c(c(/C=N/N5CCN(C)CC5)c(O)c4c3C2=O)NC(=O)/C(C)=C\\C=C\\[C@H](C)[C@H](O)[C@@H](C)[C@@H](O)[C@@H](C)[C@H](OC(C)=O)[C@@H]1C"
  viability at 10 µM: "94%"

====

assay: in vitro; conditions: human, nci-h295r cells

- compound: "N#C[C@@H](O[C@@H]1O[C@H](CO)[C@@H](O)[C@H](O)[C@H]1O)c1ccc(O)cc1"
  viability at 100 µM: "88.1%"
- compound: "O=P1(N(CCCl)CCCl)NCCCO1 (centres unmarked) [cyclophosphamide]"
  viability at 100 µM: "81.4%"

====

target: human POR (Homo sapiens, UniProt A0A9L9PY49); construct: full-length wild type in pET22b, expressed in E. coli BL21(DE3); bacterial membranes reconstituted in DLPC/DLPG liposomes without further purification, or used as microsomes; test: biochemical; design: POR proteoliposome reduction of cytochrome c, MTT (absorbance) or resazurin (fluorescence), normalized to DMSO control; details: read-out: % of control remaining, Cytochrome C=MTT; Liposomes=Liposomes; electron acceptor as given
Sequence (A0A9L9PY49 1-680): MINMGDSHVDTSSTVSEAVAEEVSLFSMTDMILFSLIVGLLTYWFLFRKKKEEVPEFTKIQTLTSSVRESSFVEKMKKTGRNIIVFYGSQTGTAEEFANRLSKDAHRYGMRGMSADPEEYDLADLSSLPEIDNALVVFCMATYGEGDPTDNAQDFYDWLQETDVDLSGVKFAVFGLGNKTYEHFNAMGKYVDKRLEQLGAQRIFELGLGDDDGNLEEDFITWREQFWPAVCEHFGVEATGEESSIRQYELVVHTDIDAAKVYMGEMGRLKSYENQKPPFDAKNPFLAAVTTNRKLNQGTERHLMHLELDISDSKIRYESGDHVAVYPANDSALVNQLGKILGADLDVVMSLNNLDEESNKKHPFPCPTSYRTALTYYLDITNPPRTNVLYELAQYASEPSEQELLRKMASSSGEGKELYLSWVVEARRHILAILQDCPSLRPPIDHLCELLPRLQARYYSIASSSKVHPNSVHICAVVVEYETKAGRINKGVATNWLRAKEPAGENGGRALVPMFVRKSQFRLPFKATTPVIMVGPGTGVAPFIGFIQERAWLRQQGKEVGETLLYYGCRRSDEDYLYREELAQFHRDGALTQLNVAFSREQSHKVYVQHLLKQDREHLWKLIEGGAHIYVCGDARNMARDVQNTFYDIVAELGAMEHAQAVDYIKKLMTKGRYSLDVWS
# maps each entry to its remaining activity at 10 µM

- molecule: "CC(=O)CC(c1ccccc1)c1c(O)c2ccccc2oc1=O (stereo not drawn) [Warfarin]"
  remaining activity at 10 µM (%): 118
- molecule: "CCCCc1oc2ccccc2c1C(=O)c1cc(I)c(OCCN(CC)CC)c(I)c1 [Amiodarone]"
  remaining activity at 10 µM (%): 85.1
- molecule: "CC(C)c1nc(CN(C)C(=O)N[C@H](C(=O)N[C@@H](Cc2ccccc2)C[C@H](O)[C@H](Cc2ccccc2)NC(=O)OCc2cncs2)C(C)C)cs1 [Ritonavir]"
  remaining activity at 10 µM (%): 88.4

====

target: SbPOR2b (Sorghum bicolor, UniProt C5YJG8); construct: gene CPR; full-length, expressed in E. coli NiCo21(DE3) from pET52b, purified on 2',5'-ADP Sepharose and Q-sepharose, in DLPC/DLPG proteoliposomes; mutant in lipid nanodiscs; assay: resazurin reduction, fluorescence, Hill fit; type: biochemical
Sequence (C5YJG8 whole entry): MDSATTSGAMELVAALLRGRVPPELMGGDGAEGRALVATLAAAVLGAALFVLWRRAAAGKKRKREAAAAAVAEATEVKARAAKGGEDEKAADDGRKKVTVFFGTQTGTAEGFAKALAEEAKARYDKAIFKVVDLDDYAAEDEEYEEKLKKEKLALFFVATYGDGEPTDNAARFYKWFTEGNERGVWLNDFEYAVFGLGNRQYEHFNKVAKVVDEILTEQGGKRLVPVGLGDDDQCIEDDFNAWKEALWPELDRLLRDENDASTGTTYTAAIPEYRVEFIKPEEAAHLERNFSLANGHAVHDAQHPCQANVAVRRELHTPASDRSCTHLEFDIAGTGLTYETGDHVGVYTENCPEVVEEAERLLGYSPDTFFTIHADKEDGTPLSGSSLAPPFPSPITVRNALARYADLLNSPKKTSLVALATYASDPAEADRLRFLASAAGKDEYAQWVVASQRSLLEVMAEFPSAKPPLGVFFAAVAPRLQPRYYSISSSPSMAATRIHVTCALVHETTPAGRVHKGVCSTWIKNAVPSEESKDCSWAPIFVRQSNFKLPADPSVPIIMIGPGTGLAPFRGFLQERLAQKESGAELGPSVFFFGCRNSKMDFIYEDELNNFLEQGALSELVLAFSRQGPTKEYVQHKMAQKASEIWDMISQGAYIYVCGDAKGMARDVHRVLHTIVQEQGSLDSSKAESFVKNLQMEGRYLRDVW

- compound: "O=P1(N(CCCl)CCCl)NCCCO1 (stereo not shown) [cyclophosphamide]"
  unit_abbreviation: "µM"
  EC50: 159
